Data credit: patent US11492589B2

- System: Lactobacillus plantarum CJLP475 strain
- assayRemarks: Antibiotic susceptibility test with antibiotic discs
- Format: cell-based
- experimentalConditions: antibiotic discs on solid Mueller Hinton II medium, 37° C., 24 hours
property: Radius of Growth Inhibition Area Centered Around Antibiotics

compound="CC[C@H]1OC(=O)[C@H](C)[C@@H](O[C@H]2C[C@@](C)(OC)[C@@H](O)[C@H](C)O2)[C@H](C)[C@@H](O[C@@H]2O[C@H](C)C[C@H](N(C)C)[C@H]2O)[C@](C)(O)C[C@@H](C)C(=O)[C@H](C)[C@@H](O)[C@]1(C)O [E15 (Erythromycin), Erythromycin]" testresult="9 mm"
compound="CCC[C@@H]1C[C@@H](C(=O)N[C@@H]([C@H]2O[C@H](SC)[C@H](O)[C@@H](O)[C@H]2O)[C@H](C)Cl)N(C)C1 [C30 (Clindamycin), Clindamycin]" testresult="8 mm"
compound="CC1(C)S[C@@H]2[C@H](NC(=O)[C@H](N)c3ccccc3)C(=O)N2[C@H]1C(=O)O [Amp10 (Ampicillin), Ampicillin]" testresult="7 mm"

Ask: // map NC[C@H]1O[C@H](O[C@H]2[C@H](O)[C@@H](O[C@H]3O[C@H](CO)[C@@H](O)[C@H](N)[C@H]3O)[C@H](N)C[C@@H]2N)[C@H](O)[C@@H](O)[C@@H]1O [K30 (Kanamycin), Kanamycin] to recorded Radius of Growth Inhibition Area Centered Around Antibiotics (system: Lactobacillus plantarum CJLP475 strain)
Reply: 1.5 mm

Ask: // lookup Radius of Growth Inhibition Area Centered Around Antibiotics | system=Lactobacillus plantarum CJLP475 strain | key= O=C(N[C@H](CO)[C@H](O)c1ccc([N+](=O)[O-])cc1)C(Cl)Cl [S10 (Chloramphenicol), Chloramphenicol]
Reply: 3 mm

Ask: For Lactobacillus plantarum CJLP475 strain, provide Radius of Growth Inhibition Area Centered Around Antibiotics of [H]/N=C(/N)N[C@H]1[C@H](O)[C@@H](O)[C@H](O[C@@H]2O[C@@H](C)[C@](O)(C=O)[C@H]2O[C@@H]2O[C@@H](CO)[C@H](O)[C@@H](O)[C@@H]2NC)[C@@H](N/C(N)=N\[H])[C@@H]1O [DA2 (Streptomycin), Streptomycin] please.
Reply: 4 mm
